target: TBK1 (Homo sapiens (Human)); test: TR-FRET kinase assay, TBK1; settings: read-out: TBK1-IC50; full length recombinant TBK1 2.5 nM, 2x Km ATP, 1 μM peptide, 240 min at 25° C.; geometric mean of minimum four determinations
Sequence (Q9UHD2 whole entry): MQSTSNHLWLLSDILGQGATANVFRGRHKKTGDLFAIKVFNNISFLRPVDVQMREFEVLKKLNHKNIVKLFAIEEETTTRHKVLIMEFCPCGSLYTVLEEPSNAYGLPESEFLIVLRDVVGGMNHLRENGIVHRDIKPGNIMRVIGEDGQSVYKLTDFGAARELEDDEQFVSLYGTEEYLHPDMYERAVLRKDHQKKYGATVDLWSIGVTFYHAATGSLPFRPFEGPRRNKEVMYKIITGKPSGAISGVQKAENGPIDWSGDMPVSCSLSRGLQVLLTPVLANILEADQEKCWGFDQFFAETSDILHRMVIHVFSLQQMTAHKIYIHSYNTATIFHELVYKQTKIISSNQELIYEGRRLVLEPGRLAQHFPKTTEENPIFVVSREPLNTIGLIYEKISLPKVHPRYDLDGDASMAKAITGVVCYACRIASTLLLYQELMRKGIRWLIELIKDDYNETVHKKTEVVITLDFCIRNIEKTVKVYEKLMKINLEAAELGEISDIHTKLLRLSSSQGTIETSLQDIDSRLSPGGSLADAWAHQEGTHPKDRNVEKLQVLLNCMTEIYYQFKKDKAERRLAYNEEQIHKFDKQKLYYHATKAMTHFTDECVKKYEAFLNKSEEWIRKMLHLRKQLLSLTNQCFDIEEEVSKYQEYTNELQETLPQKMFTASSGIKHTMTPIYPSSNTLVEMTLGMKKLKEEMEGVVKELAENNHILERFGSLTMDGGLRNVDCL
Categories are defined by ranges of IC50, namely low: < 4 nM; intermediate: ≥ 4 nM and < 20 nM; high: ≥ 20 nM

Solved cases below.
N#Cc1cc(-c2ccnc3[nH]c(C4CC4)cc23)ccc1OC1CCOCC1 [Example 50]: high
N#Cc1cc(-c2ccnc3[nH]c(-c4ccc(N5CCOCC5)cc4)nc23)ccc1O[C@@H]1CCN(C(=O)CO)C1 [Example 196]: intermediate
CC(C)NC(=O)c1cc2c(-c3ccc(OC4CCOCC4)c(C#N)c3)ccnc2[nH]1 [Example 60]: high
N#Cc1cc(-c2ncnc3[nH]c(-c4ccc(N5CCN(CC(F)F)CC5)cc4)cc23)ccc1OC1CCN(C(=O)CO)CC1 [Example 264]: low
N#Cc1cc(-c2ccnc3[nH]c(C#CC4CCOCC4)cc23)ccc1OC1CCOCC1 [Example 35]: high

Band for the recorded IC50 of N#Cc1cc(-c2ncnc3[nH]c(-c4cccc(Cn5ccnc5)c4)cc23)ccc1OC1CCOCC1 [Example 119] ? low

Band for the recorded IC50 of N#Cc1cc(-c2ccnc3[nH]c(-c4ccc(N5CCOCC5)cc4)cc23)ccc1OCC1CC1 [Example 80] ? intermediate

Band for the recorded IC50 of N#Cc1cc(-c2ncnc3[nH]c(-c4ccc(C(=O)N5CCCC5)cc4)cc23)ccc1OC1CCOCC1 [Example 185] ? low

Band for the recorded IC50 of CC1(C)C(=O)Nc2cc(-c3cc4c(-c5ccc(OC6CCOCC6)c(C#N)c5)ccnc4[nH]3)ccc21 [Example 76] ? intermediate

Band for the recorded IC50 of N#Cc1cc(-c2ccnc3[nH]c(-c4cccc(N5CCOCC5)c4)cc23)ccc1OC1CCOCC1 [Example 78] ? high

Band for the recorded IC50 of COc1ccc(-c2nc3c(-c4ccc(OC5CCOCC5)c(C#N)c4)ncnc3[nH]2)cc1 [Example 146] ? intermediate

src = patent US10072001B2
